# study_target: human TGR5 (h-TGR5) (Homo sapiens, UniProt Q8TDU6)
# Construct: expressed in transfected cells
# Sequence (Q8TDU6 1-330): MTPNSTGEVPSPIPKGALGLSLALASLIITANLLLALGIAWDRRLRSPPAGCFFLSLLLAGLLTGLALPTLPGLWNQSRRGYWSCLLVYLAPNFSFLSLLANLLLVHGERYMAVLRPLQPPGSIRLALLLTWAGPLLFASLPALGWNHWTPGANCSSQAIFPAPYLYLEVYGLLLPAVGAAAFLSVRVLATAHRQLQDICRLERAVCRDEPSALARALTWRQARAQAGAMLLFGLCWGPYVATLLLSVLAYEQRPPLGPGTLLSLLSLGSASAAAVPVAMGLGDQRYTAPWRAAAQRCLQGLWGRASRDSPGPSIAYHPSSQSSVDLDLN
# assay_explanation: TGR5/CRE-Luciferiase Assay (HEK 293 hTGR5/CRE-Luc cells)
# Assay type: cell-based
# conditions_used: h-TGR5 CRE-Luc EC50, Table 1; read-out: CRE-Luc (EC50)
pEC50: −log10 of the molar value.
measurement_label: pEC50

{"compound": "CC(C)(c1cccc(S(C)(=O)=O)c1)c1cnc(SCc2c(F)cccc2Cl)n1-c1ccc(F)cc1", "pEC50": "6.00 to 7.00"}
{"compound": "CC(C)(c1ccc(OC(F)(F)F)c(Cl)c1)c1cnc(SCc2ccc(F)cc2Cl)n1-c1ccc(F)cc1", "pEC50": "5.00 to 6.00"}

Switching to the query record.
Using the record for COc1cc(-n2c(C(C)(C)c3ccc(S(C)(=O)=O)cc3)cnc2SCc2ccc(Cl)c(-c3nnn[nH]3)c2)ccc1F , state its measured pEC50. 6.00 to 7.00

Numbers sourced from patent US8785488B2.
